System: HCT8 cells
Test: Cytotoxicity on confluent monolayer HCT8 cells (Promega CellTiter Aqueous One MTS assay)
Assay type: cell-based, human
Settings: 48 hours, highest final concentration 100 µM, two replicate experiments
The entries below are paired with their reported TC50 HCT8.
Express it in µM; write the number only.

Look over these answered cases.
1) Cc1[nH]c2ccccc2c1CCNCc1ccc(/C=C/C(=O)NO)cc1 ... 130
2) O=C(/C=C/c1cccc(S(=O)(=O)Nc2ccccc2)c1)NO ... 90
3) O=C(NO)c1cnc(N2C[C@@H]3[C@H](C2)[C@H]3NCc2ccc3cc(F)ccc3n2)nc1 ... 44

Now look at this one.
// query Any idea what TC50 HCT8 was measured for O=C(/C=C/c1ccc(CN(CCO)CCc2c[nH]c3ccccc23)cc1)NO ?
// result 150

* * *

Tested on: Babesia duncani
Assay: Propidium iodide-based in vitro dose-response assay, B. duncani-infected red blood cells, 384-well plates
Format: cell-based
Conditions: Babesia duncani, Erythrocyte, 48 h, given in Fig 2 and Fig 3B; nine-point serial dilution, 48 hours, experiments repeated twice; read-out: EC50 (95% CI)
The entries below are paired with their reported pEC50.
When answering, recall that pEC50 equals minus log10 of the concentration in mol/L, and write that number alone.

Look over these answered cases.
1) CC[C@H]1OC(=O)[C@H](C)[C@@H](O[C@H]2C[C@@](C)(OC)[C@@H](O)[C@H](C)O2)[C@H](C)[C@@H](O[C@@H]2O[C@H](C)C[C@H](N(C)C)[C@H]2O)[C@](C)(O)C[C@@H](C)CN(C)[C@H](C)[C@@H](O)[C@]1(C)O ... 4.92
2) C=C[C@H]1C[N@@]2CC[C@H]1C[C@H]2[C@H](O)c1ccnc2ccc(OC)cc12 ... 4.74

// query Form entry - test system: Babesia duncani; read-out: pEC50; compound: O=C1C(O)=C([C@H]2CC[C@H](c3ccc(Cl)cc3)CC2)C(=O)c2ccccc21
// result 6.28

* * *

Test: Cytotoxicity on confluent monolayer HCT8 cells (Promega CellTiter Aqueous One MTS assay)
Type: cell-based
Settings: human HCT8 cells
valueType: EC50 at 48 h (µM)
Express it in µM; write the number only.

// query Any idea what EC50 at 48 h was measured for O=C(NO)c1cnc(N2C[C@@H]3[C@H](C2)[C@H]3NCc2ccc3cc(F)ccc3n2)nc1 [Nanatinostat] ?
// result 56.2

* * *

Tested on: HCT8 cells
Assay: Cytotoxicity on confluent monolayer HCT8 cells (Promega CellTiter Aqueous One MTS assay)
Assay type: cell-based, human
Details: 48 hours, highest final concentration 100 µM, two replicate experiments
Protocol: Human HCT8 cells were grown in tissue culture flasks until a confluent monolayer was achieved. […] Cells were incubated with the drug for 48 hours. Promega CellTiter Aqueous One Solution Cell Proliferation Assay (MTS) (PRG3580) was commercially obtained and used to ascertain cell viability, with […] measured using a Biotek microplate reader. Cells incubated in 0.5% DMSO served as a positive growth control and comparator arm.
The entries below are paired with their reported TC50 HCT8.

1. CCCCc1nc2cc(/C=C/C(=O)NO)ccc2n1CCN(CC)CC [Pracinostat] ... 450 µM
2. CCN(CC)Cc1ccc2cc(COC(=O)Nc3ccc(C(=O)NO)cc3)ccc2c1 [Givinostat] ... 43 µM
3. Nc1ccccc1NC(=O)c1ccc(CNC(=O)OCc2cccnc2)cc1 [Entinostat] ... 110 µM

// query Any idea what TC50 HCT8 was measured for Cn1cc(CNCC2CCN(c3ncc(C(=O)NO)cn3)CC2)c2ccccc21 [Quisinostat] ?
// result 170 µM

// query What about this compound? Nc1ccccc1NC(=O)c1ccc(CNc2nccc(-c3cccnc3)n2)cc1 [Mocetinostat]
// result 56 µM
